Origin of the recorded values: patent US9750719B2

target: human Cav2.2 α (α1B) subunit, along with the human β3 and α2δ1 auxiliary subunits (Homo sapiens); construct: expressed in transfected cells; experiment: hCav2.2 assay, IonWorks planar array electrophysiology in stable HEK293 cell line; format: cell-based; conditions: inhibition by 50% of current elicited by the 1st depolarising pulse; HEK293 cells; read-out: tonic pIC50 (converted)
Sequence (Q00975 whole entry): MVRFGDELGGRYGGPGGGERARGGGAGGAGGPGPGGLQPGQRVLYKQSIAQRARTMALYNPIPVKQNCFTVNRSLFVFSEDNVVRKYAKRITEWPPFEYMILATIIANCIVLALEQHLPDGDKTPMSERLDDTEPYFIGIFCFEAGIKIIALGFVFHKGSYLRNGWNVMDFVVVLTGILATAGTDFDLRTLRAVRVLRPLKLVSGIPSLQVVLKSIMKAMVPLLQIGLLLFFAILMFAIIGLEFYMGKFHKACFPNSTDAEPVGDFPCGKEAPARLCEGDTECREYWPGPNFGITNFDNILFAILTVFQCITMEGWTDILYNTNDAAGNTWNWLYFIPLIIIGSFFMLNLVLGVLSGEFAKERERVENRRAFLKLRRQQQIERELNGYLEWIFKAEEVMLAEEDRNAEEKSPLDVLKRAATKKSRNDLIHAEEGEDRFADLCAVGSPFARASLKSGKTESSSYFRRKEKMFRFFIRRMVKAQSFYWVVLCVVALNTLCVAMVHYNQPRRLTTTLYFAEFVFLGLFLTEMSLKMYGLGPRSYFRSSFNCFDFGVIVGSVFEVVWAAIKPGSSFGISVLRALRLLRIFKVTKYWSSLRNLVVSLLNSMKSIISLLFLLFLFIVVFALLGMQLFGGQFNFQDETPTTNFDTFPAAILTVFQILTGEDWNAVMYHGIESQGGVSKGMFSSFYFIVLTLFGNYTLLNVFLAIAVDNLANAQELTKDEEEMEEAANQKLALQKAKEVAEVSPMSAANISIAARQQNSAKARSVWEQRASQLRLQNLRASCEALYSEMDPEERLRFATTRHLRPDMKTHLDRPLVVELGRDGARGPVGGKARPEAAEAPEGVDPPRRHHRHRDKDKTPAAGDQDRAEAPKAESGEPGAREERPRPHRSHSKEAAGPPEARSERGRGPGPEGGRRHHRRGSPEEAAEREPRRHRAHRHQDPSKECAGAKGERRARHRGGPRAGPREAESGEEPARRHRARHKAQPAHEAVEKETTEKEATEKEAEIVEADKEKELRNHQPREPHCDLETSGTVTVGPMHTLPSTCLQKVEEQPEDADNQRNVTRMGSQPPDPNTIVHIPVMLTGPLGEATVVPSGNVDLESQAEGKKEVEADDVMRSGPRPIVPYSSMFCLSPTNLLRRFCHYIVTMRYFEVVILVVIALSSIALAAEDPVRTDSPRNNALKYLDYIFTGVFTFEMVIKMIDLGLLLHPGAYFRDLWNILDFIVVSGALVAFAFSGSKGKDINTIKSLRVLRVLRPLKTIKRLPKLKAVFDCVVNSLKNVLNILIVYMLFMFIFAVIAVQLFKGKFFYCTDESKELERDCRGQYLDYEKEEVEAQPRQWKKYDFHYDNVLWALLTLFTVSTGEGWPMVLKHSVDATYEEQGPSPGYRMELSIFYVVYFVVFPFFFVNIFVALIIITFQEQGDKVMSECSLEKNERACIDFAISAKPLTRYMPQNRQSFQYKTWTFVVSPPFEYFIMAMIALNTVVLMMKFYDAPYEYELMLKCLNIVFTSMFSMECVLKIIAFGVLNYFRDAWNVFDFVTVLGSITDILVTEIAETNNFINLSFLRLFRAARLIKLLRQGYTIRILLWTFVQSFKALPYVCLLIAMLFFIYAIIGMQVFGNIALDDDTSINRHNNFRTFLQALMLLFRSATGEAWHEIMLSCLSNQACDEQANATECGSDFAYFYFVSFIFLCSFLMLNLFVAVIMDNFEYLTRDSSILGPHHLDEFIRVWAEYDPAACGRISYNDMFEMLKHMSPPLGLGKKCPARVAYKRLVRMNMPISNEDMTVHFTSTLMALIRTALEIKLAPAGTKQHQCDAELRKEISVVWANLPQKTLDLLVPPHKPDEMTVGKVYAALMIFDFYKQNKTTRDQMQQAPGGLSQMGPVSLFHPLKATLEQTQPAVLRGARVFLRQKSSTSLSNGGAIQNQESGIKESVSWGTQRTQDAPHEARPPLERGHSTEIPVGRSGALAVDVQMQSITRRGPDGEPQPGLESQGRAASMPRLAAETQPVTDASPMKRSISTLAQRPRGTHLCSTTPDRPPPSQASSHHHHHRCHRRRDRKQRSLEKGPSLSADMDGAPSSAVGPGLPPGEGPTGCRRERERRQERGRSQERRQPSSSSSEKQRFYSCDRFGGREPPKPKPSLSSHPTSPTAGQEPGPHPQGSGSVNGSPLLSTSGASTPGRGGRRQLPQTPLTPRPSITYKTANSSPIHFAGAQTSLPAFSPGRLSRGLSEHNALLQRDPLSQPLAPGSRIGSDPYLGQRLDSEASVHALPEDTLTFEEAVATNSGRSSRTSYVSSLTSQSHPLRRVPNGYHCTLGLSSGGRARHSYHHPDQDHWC
Sequence (P54284 whole entry partner): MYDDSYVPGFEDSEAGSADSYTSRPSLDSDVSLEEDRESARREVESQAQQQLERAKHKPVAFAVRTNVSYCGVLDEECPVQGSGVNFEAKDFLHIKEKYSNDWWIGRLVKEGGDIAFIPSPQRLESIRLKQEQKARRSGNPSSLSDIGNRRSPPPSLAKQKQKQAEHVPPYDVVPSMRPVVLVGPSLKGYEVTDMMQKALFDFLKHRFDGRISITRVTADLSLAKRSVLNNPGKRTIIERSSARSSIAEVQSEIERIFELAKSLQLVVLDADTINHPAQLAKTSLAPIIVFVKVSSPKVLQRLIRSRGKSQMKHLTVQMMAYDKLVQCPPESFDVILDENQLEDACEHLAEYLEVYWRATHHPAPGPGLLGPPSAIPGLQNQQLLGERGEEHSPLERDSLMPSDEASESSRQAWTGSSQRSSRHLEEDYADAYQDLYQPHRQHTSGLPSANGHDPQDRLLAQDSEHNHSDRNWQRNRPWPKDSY
Sequence (P54289 25-946 partner limits assumed): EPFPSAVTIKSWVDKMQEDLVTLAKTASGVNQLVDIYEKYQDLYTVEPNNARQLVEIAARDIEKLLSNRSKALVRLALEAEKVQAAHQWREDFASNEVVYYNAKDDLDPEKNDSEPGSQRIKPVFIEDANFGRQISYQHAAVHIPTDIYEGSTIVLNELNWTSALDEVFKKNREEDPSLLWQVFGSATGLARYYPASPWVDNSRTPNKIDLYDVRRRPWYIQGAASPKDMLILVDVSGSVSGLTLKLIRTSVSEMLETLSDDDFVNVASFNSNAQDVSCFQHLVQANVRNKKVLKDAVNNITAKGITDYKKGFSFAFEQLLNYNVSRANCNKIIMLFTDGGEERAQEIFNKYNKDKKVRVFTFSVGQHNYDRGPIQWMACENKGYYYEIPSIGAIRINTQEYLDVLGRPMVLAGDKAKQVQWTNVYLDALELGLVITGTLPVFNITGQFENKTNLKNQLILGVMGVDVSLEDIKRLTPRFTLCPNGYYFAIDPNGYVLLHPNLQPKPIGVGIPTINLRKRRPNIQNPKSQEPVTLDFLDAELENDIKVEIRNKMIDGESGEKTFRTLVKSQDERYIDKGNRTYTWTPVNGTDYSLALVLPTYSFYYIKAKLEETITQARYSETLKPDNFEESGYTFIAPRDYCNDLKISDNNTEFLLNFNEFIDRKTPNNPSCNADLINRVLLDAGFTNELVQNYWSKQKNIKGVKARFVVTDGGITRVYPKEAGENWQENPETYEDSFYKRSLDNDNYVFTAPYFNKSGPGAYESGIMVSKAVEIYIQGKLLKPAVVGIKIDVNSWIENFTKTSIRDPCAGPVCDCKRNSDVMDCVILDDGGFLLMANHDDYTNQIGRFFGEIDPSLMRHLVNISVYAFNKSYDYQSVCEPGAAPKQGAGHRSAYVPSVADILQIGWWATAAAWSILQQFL
Sequence (P54289 947-1103 partner limits assumed): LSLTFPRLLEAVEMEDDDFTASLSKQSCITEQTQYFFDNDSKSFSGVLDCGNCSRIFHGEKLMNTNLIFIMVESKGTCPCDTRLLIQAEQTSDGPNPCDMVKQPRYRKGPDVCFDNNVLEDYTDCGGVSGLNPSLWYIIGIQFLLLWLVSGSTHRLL
Counter-ions that a name gives are not always drawn.
Parameter IC50: see the listing below.

# IC50 lookup, item CN1CCN(Cc2nnnn2-c2cccc(C(F)(F)F)c2)CC1(C)C [Compound 45, hydrochloride]
≤ 31.6 µM

New cases:
Find the recorded IC50 belonging to C[C@@H]1COCCN1Cc1nnnn1-c1ccc(OC(F)F)cc1 [Compound 54, hydrochloride] and report it.
≤ 31.6 µM

Quick one: O=C1CCC2CN(Cc3nnnn3-c3ccc(C(F)(F)F)cc3)CCN12 (stereo not drawn) [Compound 74]
≤ 10 µM

# iterate: FC(F)(F)c1ccc(-n2nnnc2CN2CCN3CCCC3C2)cc1 (stereo not drawn) [Compound 70, di-hydrochloride]
≤ 31.6 µM

Try this compound next: C[C@H]1COCCN1Cc1nnnn1-c1ccc(C(F)(F)F)cc1 [Compound 39, hydrochloride]
≤ 10 µM

Also need CCC(=O)N1CCN(Cc2nnnn2-c2ccc(C#N)c(C(F)(F)F)c2)CC1 [Compound 145] , thanks.
≤ 3.16 µM

Try this compound next: CCCS(=O)(=O)N1CCN(Cc2nnnn2-c2ccc(C#N)c(C(F)(F)F)c2)CC1 [Compound 106]
≤ 3.16 µM

What do we get for CC(C)S(=O)(=O)N1CCN(Cc2nnnn2-c2ccc(C#N)c(C(F)(F)F)c2)CC1 [Compound 122] ?
≤ 3.16 µM

Try the compound C[C@@H]1CN(Cc2nnnn2-c2ccc(Br)cc2Cl)C[C@H](C)O1 [Compound 57, hydrochloride]
≤ 31.6 µM
